Measured values drawn from PubChem BioAssay (NCATS) for this set.

- tgt: Thyroid hormone receptor beta (Homo sapiens)
- assay.notes: qHTS assay for small molecule antagonists of thyroid hormone receptor beta signaling (AID 588547);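 further: cells stimulated with 0.4 nM T3 agonist during compound exposure; on the % scale 0 is the no-effect control and ±100 the full control effect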
- experimental.conditions: TR-UAS-bla HEK293, beta-lactamase ratio, antagonist mode, 18 h
Records with an inconclusive call do not appear. Active and inactive are the calls of the source. The call rests on the fitted dose curve; in most records, active means well fitted inhibition curve with a large enough effect in the signal ratio, with a control signal flat (not every such curve was filed as active); inconclusive means small, poorly fitted or top-dose-only effect, or effect the other way, or a change in a side signal; inactive means flat fitted curve, though single readings scatter; the % refers to the signal ratio.
recorded.endpoint: activity change % (negative = inhibition)

Please review the entries below; each comes with its answer.
[
  {
    "molecule": "O[C@@H]([C@H](O)[C@@H](O)CBr)[C@@H](O)CBr",
    "recorded.measurement": "-6.77% (inactive)"
  },
  {
    "molecule": "CC1=CC(C)(C)Nc2ccccc21",
    "recorded.measurement": "-25% (inactive)"
  },
  {
    "molecule": "COc1ccc(/C=C/c2cc(OC)cc(=O)o2)cc1",
    "recorded.measurement": "-10.8% (inactive)"
  },
  {
    "molecule": "CC1=C2[C@H](/C=C(\\C)C(=O)O)CC[C@@H](C)[C@H]2CC1",
    "recorded.measurement": "11.8% (inactive)"
  }
]

According to the records, this molecule CCC(O)OC(O)CC (stereo not given) displays activity change % (negative = inhibition) of -5.47% (inactive) [middle of 4 runs]

* * *

- tgt: Rap guanine nucleotide exchange factor 3 (Homo sapiens) (UniProt O95398)
- assay.notes: Counterscreen qHTS for agonist of cAMP-regulated guanine nucleotide exchange factor 3 (EPAC1) (AID 1645889); further: % of control where 0% means no effect; nearly all actives have a fitted effect of over 40% in size
- experimental.conditions: EPAC1 Rap1B-BODIPY-GDP exchange, fluorescence; series mostly up to 154 µM
Records with an inconclusive call do not appear. Active and inactive are the calls of the source. Calls come from the whole dose curve; as a rule, active = well fitted activation curve with a large enough effect; inconclusive = small, poorly fitted or top-dose-only effect, or another doubt; inactive = no such curve, though single readings can be large or run the other way.
recorded.endpoint: activation

Worked examples follow.
[
  {
    "compound": "COc1cc2nc(N3CCNCC3)nc(N)c2cc1OC",
    "activation": "inactive"
  },
  {
    "compound": "Cc1ccc(CN(C(=O)COc2cccc([N+](=O)[O-])c2)c2ccccn2)cc1",
    "activation": "inactive"
  },
  {
    "compound": "CC(=O)C1=CCC(c2cccc(Cl)c2)N(S(=O)(=O)c2ccc(C)cc2)C1 (centres undefined)",
    "activation": "inactive"
  },
  {
    "compound": "Cc1cccc(N2CCN(S(=O)(=O)c3ccc4c(c3)CCN4C(=O)CCC(=O)O)CC2C)c1 (centres undefined)",
    "activation": "inactive"
  },
  {
    "compound": "O=C(O)c1cc(NN=C2c3ccccc3-c3ccccc32)ccc1Cl",
    "activation": "inactive"
  }
]

Lab note: each compound below needs its activation filled in.
1. C[C@H](CCC(=O)O)[C@H]1CC[C@H]2[C@@H]3CC[C@@H]4C[C@H](O)CC[C@]4(C)[C@H]3CC[C@]12C
2. CCCC(=O)OCCNc1cc(SCc2ccco2)c2nonc2c1[N+](=O)[O-]
3. CC(C1CC1)N(C(=O)NC1CCS(=O)(=O)C1)c1ccccc1 (centres undefined)
4. Cc1ccc(-c2csc(/C(C#N)=C(\O)CCl)n2)cc1
5. CCCSc1nc(C)cc(C)c1S(=O)(=O)c1ccccc1C
6. Cc1cccc(NC(=O)Cn2c(O)c(N=NC(=O)c3ccccc3O)c3ccccc32)c1
7. CCCc1nc2c(Cl)cc(C(F)(F)F)cn2c1Cc1ccc(OC)cc1C

Ans.
1: inactive; 2: 26.5% [at 30.8 µM] (inactive); 3: inactive; 4: 14.1% [at 30.8 µM] (inactive); 5: inactive; 6: inactive; 7: 14.3% [at 30.8 µM] (inactive)

Could you tell me activation for each of these compounds? They are listed below.
1. Fc1ccc2cnc(-c3ccccc3)c(-c3ccc(C(F)(F)F)cc3)c2c1
2. Cc1ccc(C(=O)C=Cc2ccc3c(c2)OCO3)c(C)c1

Ans.
1. inactive
2. 12.3% [at 30.8 µM] (inactive)
